# subject_of_test: CHIKV nsP1 (Chikungunya virus strain S27-African prototype)
# Sequence (Q8JUX6 1-535): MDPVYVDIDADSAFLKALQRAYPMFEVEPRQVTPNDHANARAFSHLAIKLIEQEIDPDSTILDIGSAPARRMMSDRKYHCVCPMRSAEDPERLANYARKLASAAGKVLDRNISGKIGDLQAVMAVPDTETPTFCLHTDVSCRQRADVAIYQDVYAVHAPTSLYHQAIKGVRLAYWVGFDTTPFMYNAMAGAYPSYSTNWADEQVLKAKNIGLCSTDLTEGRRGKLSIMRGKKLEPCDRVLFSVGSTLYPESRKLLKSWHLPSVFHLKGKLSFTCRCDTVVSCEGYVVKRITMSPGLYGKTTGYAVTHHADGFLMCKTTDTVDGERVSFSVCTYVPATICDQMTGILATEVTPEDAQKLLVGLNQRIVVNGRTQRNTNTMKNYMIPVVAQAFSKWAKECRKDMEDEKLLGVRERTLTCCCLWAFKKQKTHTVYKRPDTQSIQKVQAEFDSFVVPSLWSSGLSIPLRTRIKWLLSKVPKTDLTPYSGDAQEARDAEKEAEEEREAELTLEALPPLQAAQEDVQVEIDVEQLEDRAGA
# Type: binding
pKd: −log10 of the molar value.
reported_metric: pKd

compound	reported_metric	val
Cc1ccc(C(=O)Nc2ccc(CN3CCN(C)CC3)c(C(F)(F)F)c2)cc1C#Cc1cnc2cccnn12 [Ponatinib]	pKd	~5.42
CC1(C)CCC(CN2CCN(c3ccc(C(=O)NS(=O)(=O)c4ccc(NCC5CCOCC5)c([N+](=O)[O-])c4)c(Oc4cnc5[nH]ccc5c4)c3)CC2)=C(c2ccc(Cl)cc2)C1 [ABT199/Venetoclax]	pKd	~3.79

---

# experimental_protocol: in vitro
# run_conditions: hamster, bhk-21 cells
Structures can show the parent of a compound that is named as a salt.
Overview of recorded CC50 at 24 h for various compounds
reported_metric: CC50 at 24 h

> print(dat)
                                   compound  reported.metric        val
1  CC1(C)CCC(CN2CCN(c3ccc(C(=O)NS(=O)(=O)c4ccc(NCC5CCOCC5)c([N+](=O)[O-])c4)c(Oc4cnc5[nH]ccc5c4)c3)CC2)=C(c2ccc(Cl)cc2)C1     CC50 at 24 h  > 2500 nM
2  Cc1ccc(C(=O)Nc2ccc(CN3CCN(C)CC3)c(C(F)(F)F)c2)cc1C#Cc1cnc2cccnn12     CC50 at 24 h    2400 nM
3  COc1cc2c3cc1Oc1c(OC)c(OC)cc4c1[C@@H](Cc1cccc(c1)Oc1ccc(c(O)c1)C[C@@H]3N(C)CC2)N(C)CC4 [Berbamine Hydrochloride]     CC50 at 24 h   46000 nM

---

# Tested on: Sindbis virus SINV
# experimental_protocol: microbe, parasite or virus in culture
# run_conditions: BHK-21, read-out: SINV replicon assay IC50 (μM)
Where a name gives a salt, the structure may show the parent alone.
reported_metric: IC50

> print(dat)
                                   molecule        val
1  Cc1ccc(C(=O)Nc2ccc(CN3CCN(C)CC3)c(C(F)(F)F)c2)cc1C#Cc1cnc2cccnn12  > 1.25 µM
2  COc1cc2c3cc1Oc1c(OC)c(OC)cc4c1[C@@H](Cc1cccc(c1)Oc1ccc(c(O)c1)C[C@@H]3N(C)CC2)N(C)CC4 [Berbamine Hydrochloride]    1.94 µM
3  CC1(C)CCC(CN2CCN(c3ccc(C(=O)NS(=O)(=O)c4ccc(NCC5CCOCC5)c([N+](=O)[O-])c4)c(Oc4cnc5[nH]ccc5c4)c3)CC2)=C(c2ccc(Cl)cc2)C1    0.23 µM

---

# experimental_protocol: in vitro
# run_conditions: monkey, vero cells
Counter-ions that a name gives are not always drawn.
reported_metric: CC50 at 24 h (µM)

compound	relation_symbol	val
CC1(C)CCC(CN2CCN(c3ccc(C(=O)NS(=O)(=O)c4ccc(NCC5CCOCC5)c([N+](=O)[O-])c4)c(Oc4cnc5[nH]ccc5c4)c3)CC2)=C(c2ccc(Cl)cc2)C1 [ABT199/Venetoclax]	=	5
Cc1ccc(C(=O)Nc2ccc(CN3CCN(C)CC3)c(C(F)(F)F)c2)cc1C#Cc1cnc2cccnn12 [Ponatinib]	=	7.95
COc1cc2c3cc1Oc1c(OC)c(OC)cc4c1[C@@H](Cc1cccc(c1)Oc1ccc(c(O)c1)C[C@@H]3N(C)CC2)N(C)CC4 [Berbamine Hydrochloride]	>	25

Hey, just so you know, these numbers are from paper doi:10.1101/2024.05.19.594723v1.
